Assay: Human HepG2 cell viability assay in 384 well format
Assay type: toxicity, cell-based
Set-up: dose 125 nL, time 70.5 hour; concentration not given beside the values
Conditions: HepG2 cells, read-out: Inhibition
MEASUREMENT_NAME: cytotoxicity at 70.5 h

INSERT INTO assay_data (compound, result) VALUES
  ('O=C1Nc2ccccc2CC12CCCN2Cc1ccc(C(F)(F)F)cc1 (configuration not stated)', '6.34%'),
  ('O=C1OCCN1Cc1nc(C2(c3ccc(F)cc3)CCOC2)no1 (configuration not stated)', '-6.4%'),
  ('CN(Cc1cccnc1)C[C@H]1CC[C@@H](Cc2ccc3c(cnn3C)c2)O1', '-10.4%'),
  ('Cc1cc(CN2CCN(Cc3ccc(C#N)cc3OC(F)F)CC2)no1', '18.7%'),
  ('COC(=O)[C@@H]1C[C@H](NC(=O)c2cc(=O)[nH]c3ccc(C)cc23)CN1C', '-13%'),
  ('CCN(C)c1ccc(CNC(=O)CCn2cc(C)cn2)cc1F', '-1.28%'),
  ('OCC1CCCN1c1cc(NCc2ccccn2)ncn1 (configuration not stated)', '0.0157%'),
  ('CCC(NC(=O)CNCC(F)(F)F)c1cc(F)ccc1F (configuration not stated)', '-6.5%'),
  ('Cn1cc(Br)cc(NC(=O)Cc2cccs2)c1=O', '17.9%'),
  ('CN(C)c1ccnc(-c2ccnc3c2ccn3C)n1', '-5.41%'),
  ('Cc1occc1C(=O)NCC(=O)N(C)CCCOc1ccc(F)cc1', '-6.91%'),
  ('CCn1cc(C#N)c(=O)c2cc(Br)ccc21', '-13.9%');
